assayText: Permeability of the compound at 100 ug/ml after 10 hrs by artificial membrane permeability assay
Format: ADME
experimentalConditions: PAMPA; read-out: permeability
observable: Papp at 10 h, 100 ug/ml (×10⁻⁶ cm/s)
One number for each entry, in ×10⁻⁶ cm/s.

Known results for molecules:
1) Cc1c2c(nc3ccccc13)CC/C(=C\c1ccccc1)C2=O; 3.1
2) C[n+]1c2c(c(N)c3ccccc31)C(=O)/C(=C/c1cccc3ccccc13)CC2.[I-]; 4.6
3) C[n+]1c2c(c(N)c3ccccc31)C(=O)/C(=C\c1cccc3ccccc13)CC2.[I-]; 3.5
4) Nc1c2c(nc3ccccc13)CC/C(=C\c1cccc([N+](=O)[O-])c1)C2=O; 3.3

Here are 2 molecules. What values of Papp at 10 h, 100 ug/ml were reported for them?
1. C[n+]1c2c(c(N)c3ccccc31)C(=O)/C(=C\c1ccccc1)CC2.[I-]
2. O=C1/C(=C/c2ccccc2Cl)CCc2nc3ccccc3cc21

1.8
7.1

List reported Papp at 10 h, 100 ug/ml for each of these molecules:
1. O=C1/C(=C/c2ccccc2)CCc2nc3ccccc3cc21
2. Nc1c2c(nc3ccccc13)CC/C(=C\c1cccc(Cl)c1)C2=O
3. C[n+]1c2c(c(N)c3ccccc31)C(=O)/C(=C\c1cccc(F)c1)CC2.[I-]
4. Nc1c2c(nc3ccccc13)CC/C(=C/c1ccccc1)C2=O

1: 8.6; 2: 1.1; 3: 2.7; 4: 13.3
